molecular target: Mushroom tyrosinase (Agaricus bisporus, UniProt O42713+Q00024+C7FF04+C7FF05); assay: Inhibition of mushroom tyrosinase using L-Dopa as substrate preincubated for 10 mins followed by substrate addition and measured after 20 mins
Hi! Just check whether IC50 is below 0.6 µg/mL. Below gives criterion met, equal or above gives criterion not met.

Take a look at these entries with their results.
- MOL: "COc1ccc(-c2oc3cc(Br)cc(Br)c3c(=O)c2O)cc1OC"
  LABEL_VALUE: "criterion met"
- MOL: "O=c1c(O)c(-c2cccc([N+](=O)[O-])c2)oc2cc(Br)cc(Br)c12"
  LABEL_VALUE: "criterion met"
- MOL: "O=c1cc(-c2c[nH]c3ccccc23)oc2cc(Br)cc(Br)c12"
  LABEL_VALUE: "criterion met"
- MOL: "O=c1cc(-c2cccc3ccccc23)oc2cc(Br)cc(Br)c12"
  LABEL_VALUE: "criterion not met"
- MOL: "Cc1ccc(S(=O)(=O)n2cc(-c3cc(=O)c4c(Br)cc(Br)cc4o3)c3ccccc32)cc1"
  LABEL_VALUE: "criterion not met"

Please let me know if "Cc1ccc(S(=O)(=O)n2cc(-c3oc4cc(Br)cc(Br)c4c(=O)c3O)c3ccccc32)cc1" shows IC50 below 0.6 µg/mL. criterion not met

One more compound: "Cc1ccc(-c2cc(=O)c3c(Br)cc(Br)cc3o2)c(C)c1" criterion not met

One more compound: "O=c1cc(-c2ccco2)oc2cc(Br)cc(Br)c12" criterion not met
